Entries and their measured RLM % inh. @ 500 nM follow.
System: 20-HETE formation (CYP4) in RLM
Assay Info: Inhibition of 20-HETE formation at 250 or 500 nM in RLM microsomal incubations
Assay type: biochemical, rat
Experimental Conditions: 500 nM compound; RLM 300 μg/ml
Experimental: To screen the inhibitory effects against 20-HETE formation, compounds were screened in HLM, RLM, RKM and rCYP4F2 microsomal incubations. Compounds dissolved in either 100% methanol or 100% DMSO to yield 10 mM stock solution. […] 20-HETE formation was quantified using a validated UPLC-MS/MS assay and normalized by vehicle group. […] Quantitation of 20-HETE by SRM was performed by monitoring the m/z. Analytical data was acquired and analyzed using Xcaliber 3.0 data system (ThermoFinnigan, San Jose, CA).
State just the number; it will be interpreted in %.

# example entries with known answers
O=[N+]([O-])c1ccc(C2CCN(c3cn[nH]c3)CC2)cc1 = 22.30
O=C(c1ccc(C2CCN(c3cn[nH]c3)CC2)c(F)c1)N1CCCC1 = 19.30
CCS(=O)(=O)c1ccc(C2CCN(c3ccn[nH]3)CC2)cc1 = 0.00

Turning to the following compound.
For this compound ( O=S(=O)(c1ccccc1)C1CCN(c2ccn[nH]2)CC1 ), measured RLM % inh. @ 500 nM is 0.00
